This collection of values is drawn from ChEMBL document CHEMBL4373640.

# Tested on: MCF7
# experiment.summary: Cytotoxicity against human MCF7 cells assessed as reduction in cell viability after 48 hrs by MTS assay
# Format: functional, cell-based
# particulars: MCF7, 48 h
Recorded pIC50 values for a group of compounds are listed next.
API: returns pIC50 as number; meaning -log10 of concentration in mol/L.

Consider the reported pIC50 for these compounds:
COc1cc2c(cc1OC)[C@@H]1c3cccc(OC)c3N(CCCn3c[n+](Cc4ccc5ccccc5c4)c4cc(C)c(C)cc43)C[C@@H]1C2    5.83
COc1cccc2c1N(CCCn1c[n+](CC(=O)c3ccc4ccccc4c3)c3cc(C)c(C)cc31)C[C@@H]1Cc3ccc(Br)cc3[C@H]21    5.80

# input for lookup
Data request: Requested field: pIC50. Item: COc1ccc(C(=O)C[n+]2c(C)n(CCC(=O)N3C[C@@H]4Cc5ccccc5[C@@H]4c4cccc(OC)c43)c3ccccc32)cc1
Data returned: 5.51

###

# experiment.summary: Cytotoxicity against human SMMC-7221 cells assessed as reduction in cell viability after 48 hrs by MTS assay
# Type: functional, cell-based
# particulars: SMMC-7221, 48 h
// reported pIC50 for each item listed
Lab note — pIC50 values are minus log10 of concentrations in M.

A selection of reference data follows.
COc1cccc2c1N(CCCn1c[n+](CC(=O)c3ccc4ccccc4c3)c3cc(C)c(C)cc31)C[C@@H]1Cc3ccc(Br)cc3[C@H]21    5.87
COc1cc2c(cc1OC)[C@@H]1c3cccc(OC)c3N(C(=O)CCn3c(C)[n+](CC(=O)c4ccc5ccccc5c4)c4ccccc43)C[C@@H]1C2    5.19
COc1cc2c(cc1OC)[C@@H]1c3cccc(OC)c3N(CCCn3c[n+](CC(=O)c4ccc5ccccc5c4)c4cc(C)c(C)cc43)C[C@@H]1C2    5.77
COc1ccc(C(=O)C[n+]2cn(CCCN3C[C@@H]4Cc5ccc(Br)cc5[C@@H]4c4cccc(OC)c43)c3cc(C)c(C)cc32)cc1.[Br-]    6.05
COc1cccc2c1N(CCCn1c(C)[n+](CC(=O)c3ccc4ccccc4c3)c3ccccc31)C[C@@H]1Cc3ccccc3[C@H]21    5.70
COc1ccc(C(=O)C[n+]2c(C)n(CCCN3C[C@@H]4Cc5cc(OC)c(OC)cc5[C@@H]4c4cccc(OC)c43)c3ccccc32)cc1    5.27

Data request: Please report the recorded pIC50 for COc1ccc(C(=O)C[n+]2cn(CCCN3C[C@@H]4Cc5cc(OC)c(OC)cc5[C@@H]4c4cccc(OC)c43)c3cc(C)c(C)cc32)cc1 .
Data returned: 5.35

Data request: Quick one: pIC50 for COc1cccc2c1N(C(=O)CCn1c[n+](CC(=O)c3ccc4ccccc4c3)c3cc(C)c(C)cc31)C[C@@H]1Cc3ccc(Br)cc3[C@H]21 ?
Data returned: 6.00

Data request: What does the record list as pIC50 for COc1cc2c(cc1OC)[C@@H]1c3cccc(OC)c3N(CCCn3c[n+](Cc4ccc(C)cc4)c4cc(C)c(C)cc43)C[C@@H]1C2 ?
Data returned: 5.77

Data request: // lookup pIC50 for COc1cccc2c1N(CCCn1c(C)[n+](CC(=O)c3ccc4ccccc4c3)c3ccccc31)C[C@@H]1Cc3ccc(Br)cc3[C@H]21
Data returned: 5.95

Data request: Sample COc1cccc2c1N(CCCn1c[n+](Cc3ccc(C)cc3)c3cc(C)c(C)cc31)C[C@@H]1Cc3ccccc3[C@H]21 — what was its pIC50?
Data returned: 6.18

Data request: Look up pIC50 for this compound: COc1cccc2c1N(CCCn1c[n+](CC(=O)c3ccc4ccccc4c3)c3cc(C)c(C)cc31)C[C@@H]1Cc3ccccc3[C@H]21
Data returned: 5.96

###

Readings of pIC50 for the listed compounds
# System: SW480
# experiment.summary: Cytotoxicity against human SW480 cells assessed as reduction in cell viability after 48 hrs by MTS assay
# Assay type: functional, cell-based
# particulars: SW480, 48 h
Kindly note that pIC50 refers to -log10 of the concentration in mol/L and answer with the value alone.

COc1ccc(C(=O)C[n+]2c(C)n(CCCN3C[C@@H]4Cc5cc(OC)c(OC)cc5[C@@H]4c4cccc(OC)c43)c3ccccc32)cc1    5.63
COc1cc2c(cc1OC)[C@@H]1c3cccc(OC)c3N(CCCn3c[n+](Cc4ccc5ccccc5c4)c4cc(C)c(C)cc43)C[C@@H]1C2    5.79
COc1cccc2c1N(CCCn1c(C)[n+](CC(=O)c3ccc4ccccc4c3)c3ccccc31)C[C@@H]1Cc3ccccc3[C@H]21    5.74
COc1ccc(C(=O)C[n+]2c(C)n(CCC(=O)N3C[C@@H]4Cc5ccccc5[C@@H]4c4cccc(OC)c43)c3ccccc32)cc1    5.58
COc1ccc(C(=O)C[n+]2cn(CCCN3C[C@@H]4Cc5ccccc5[C@@H]4c4cccc(OC)c43)c3cc(C)c(C)cc32)cc1    5.76

Data request: Value lookup for pIC50; key = COc1cc2c(cc1OC)[C@@H]1c3cccc(OC)c3N(CCCn3c(C)[n+](CC(=O)c4ccc5ccccc5c4)c4ccccc43)C[C@@H]1C2
Data returned: 5.69

Data request: Form field: reported pIC50 of COc1cccc2c1N(C(=O)CCn1c[n+](CC(=O)c3ccc4ccccc4c3)c3cc(C)c(C)cc31)C[C@@H]1Cc3ccc(Br)cc3[C@H]21
Data returned: 5.74

###

# System: MCF7
# experiment.summary: Cytotoxicity against human MCF7 cells assessed as reduction in cell viability after 48 hrs by MTS assay
# Assay type: functional, cell-based
# particulars: MCF7, 48 h
Flag rule - IC50 less than 1000 nM flags met; the remaining entries get not met.

Reference set, count: 6
COc1cccc2c1N(CCCn1c(C)[n+](Cc3ccc(C)cc3)c3ccccc31)C[C@@H]1Cc3ccc(Br)cc3[C@H]21    not met
COc1cccc2c1N(C(=O)CCn1c[n+](CC(=O)c3ccc4ccccc4c3)c3cc(C)c(C)cc31)C[C@@H]1Cc3ccc(Br)cc3[C@H]21    not met
COc1cccc2c1N(CCCn1c(C)[n+](CC(=O)c3ccc4ccccc4c3)c3ccccc31)C[C@@H]1Cc3ccc(Br)cc3[C@H]21    met
COc1cc2c(cc1OC)[C@@H]1c3cccc(OC)c3N(CCCn3c[n+](Cc4ccc(C)cc4)c4cc(C)c(C)cc43)C[C@@H]1C2    not met
COc1cccc2c1N(CCCn1c(C)[n+](CC(=O)c3ccc4ccccc4c3)c3ccccc31)C[C@@H]1Cc3ccccc3[C@H]21    not met
COc1cccc2c1N(C(=O)CCn1cnc3cc(C)c(C)cc31)C[C@@H]1Cc3ccc(Br)cc3[C@H]21    not met

Data request: Is IC50 of COc1cccc2c1N(CCCn1c[n+](Cc3ccc4ccccc4c3)c3cc(C)c(C)cc31)C[C@@H]1Cc3ccc(Br)cc3[C@H]21 strictly below 1000 nM?
Data returned: met

###

# Test system: MCF7
# experiment.summary: Cytotoxicity against human MCF7 cells assessed as reduction in cell viability after 48 hrs by MTS assay
# Type: functional, cell-based
# particulars: MCF7, 48 h
experimental.endpoint: IC50

Data request: Would you kindly share the measured IC50 for COc1cccc2c1N(C(=O)CCn1c(C)[n+](Cc3ccc(C)cc3)c3ccccc31)C[C@@H]1Cc3ccccc3[C@H]21 ?
Data returned: 1570 nM

Data request: Which IC50 is reported for this compound? COc1cc2c(cc1OC)[C@@H]1c3cccc(OC)c3N(CCCn3c[n+](CC(=O)c4ccc5ccccc5c4)c4cc(C)c(C)cc43)C[C@@H]1C2
Data returned: 1120 nM

Data request: So what does the record say about IC50 for COc1cccc2c1N(CCCn1c[n+](CC(=O)c3ccc4ccccc4c3)c3cc(C)c(C)cc31)C[C@@H]1Cc3ccccc3[C@H]21 ?
Data returned: 910 nM

Data request: Which IC50 is listed for COc1cc2c(cc1OC)[C@@H]1c3cccc(OC)c3N(C(=O)CCn3c(C)nc4ccccc43)C[C@@H]1C2 ?
Data returned: > 20000 nM

Data request: Record request: IC50 value, item COc1cc2c(cc1OC)[C@@H]1c3cccc(OC)c3N(CCCn3c(C)[n+](CC(=O)c4ccc5ccccc5c4)c4ccccc43)C[C@@H]1C2
Data returned: 2160 nM

Data request: Entry under review: COc1cccc2c1N(CCCn1c(C)[n+](Cc3ccc4ccccc4c3)c3ccccc31)C[C@@H]1Cc3ccccc3[C@H]21 . Reported IC50?
Data returned: 1020 nM

Data request: Entry under review: COc1ccc(C(=O)C[n+]2c(C)n(CCCN3C[C@@H]4Cc5ccccc5[C@@H]4c4cccc(OC)c43)c3ccccc32)cc1 . Reported IC50?
Data returned: 400 nM

###

Reported IC50 is given for each of the following compounds.
# Tested on: SW480
# experiment.summary: Cytotoxicity against human SW480 cells assessed as reduction in cell viability after 48 hrs by MTS assay
# Assay type: functional, cell-based
# particulars: SW480, 48 h
Output spec: scalar in nM, unitless text.

Reference set (5 entries):
COc1cccc2c1N(CCCn1c[n+](Cc3ccc4ccccc4c3)c3cc(C)c(C)cc31)C[C@@H]1Cc3ccccc3[C@H]21    930
COc1ccc(C(=O)C[n+]2cn(CCCN3C[C@@H]4Cc5ccc(Br)cc5[C@@H]4c4cccc(OC)c43)c3cc(C)c(C)cc32)cc1.[Br-]    1400
COc1cccc2c1N(C(=O)CCn1c(C)[n+](Cc3ccc4ccccc4c3)c3ccccc31)C[C@@H]1Cc3ccccc3[C@H]21    770
COc1ccc(C(=O)C[n+]2c(C)n(CCCN3C[C@@H]4Cc5ccccc5[C@@H]4c4cccc(OC)c43)c3ccccc32)cc1    1270
COc1cc2c(cc1OC)[C@@H]1c3cccc(OC)c3N(CCCn3c[n+](CC(=O)c4ccc5ccccc5c4)c4cc(C)c(C)cc43)C[C@@H]1C2    1380

Data request: Lab request: please report IC50 under test system SW480 for COc1ccc(C(=O)C[n+]2cn(CCC(=O)N3C[C@@H]4Cc5ccccc5[C@@H]4c4cccc(OC)c43)c3cc(C)c(C)cc32)cc1
Data returned: 800
